- System: Staphylococcus aureus
- assay: Antimicrobial activity against Staphylococcus aureus CCT 1295 24 hrs by MTT method
- Type: functional
Provide the reported Activity of each item.

molecule	Activity
O=C(N[C@H](CO)[C@H](O)c1ccc([N+](=O)[O-])cc1)C(Cl)Cl	7.81 µg/mL
CCCCCC(=O)CC(=O)NC1CCOC1=O (racemic)	500 µg/mL
CCCCCCCCCCCC(=O)CC(=O)NC1CCOC1=O (racemic)	500 µg/mL

Then this molecule:
Consider CCCCCCCCCC(=O)CC(=O)NC1CCOC1=O (racemic) . Its measured Activity is 500 µg/mL
